Assay Method Text: in vivo
Conditions Used: rat
Parameter ED50: see the listing below.
Numbers only here, please. The scale is µg/kg.

Previously resolved entries follow.
• CN1CC[C@]23c4c5ccc(O)c4O[C@H]2[C@@H](O)C=C[C@H]3[C@H]1C5 [Morphine, morphine, reference compound] = 83
• CO[C@@]12CC[C@@H](NCC(=O)O)[C@@H]3Oc4c(O)ccc5c4[C@@]31CCN(C)C2C5 = 0.42

Now for another entry.
Q: Quick one: give measured ED50 for CO[C@@]12CC[C@H](NCC(=O)O)[C@@H]3Oc4c(O)ccc5c4[C@@]31CCN(C)C2C5
Ans: 0.83

----------
System Name: μ-opioid receptors (Rattus norvegicus)
Construct: from tissue; host or cells: rat brain homogenate
Sequence (P33535 whole entry): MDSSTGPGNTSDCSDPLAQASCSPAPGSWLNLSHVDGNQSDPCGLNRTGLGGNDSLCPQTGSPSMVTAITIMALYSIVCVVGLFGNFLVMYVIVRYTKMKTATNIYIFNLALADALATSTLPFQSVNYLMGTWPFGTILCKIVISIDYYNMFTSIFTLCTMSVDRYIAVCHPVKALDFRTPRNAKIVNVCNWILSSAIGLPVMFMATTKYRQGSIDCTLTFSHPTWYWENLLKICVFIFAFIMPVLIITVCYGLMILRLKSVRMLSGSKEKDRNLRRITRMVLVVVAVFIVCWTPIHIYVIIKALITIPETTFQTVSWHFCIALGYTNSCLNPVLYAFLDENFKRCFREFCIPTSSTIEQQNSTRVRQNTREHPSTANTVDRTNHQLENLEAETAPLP
Assay Method Text: Opioid receptor binding studies with [3H]DAMGO on rat's brain homogenisates
Counter-ions that a name gives are not always drawn.
Quantity Name: pKi
Units for pKi: none; it is -log10 of a concentration expressed in mol/L.

* CO[C@@]12CC[C@H](NCC(=O)OC(C)(C)C)[C@@H]3Oc4c(O)ccc5c4[C@@]31CCN(C)[C@@H]2C5 | 9.32
* CO[C@@]12CCC(NCC(=O)OC(C)(C)C)[C@@H]3Oc4c(O)ccc5c4[C@@]31CCN(C)C2C5 (stereo in doubt) | 8.89
* CO[C@@]12CC[C@@H](NC(=N)N)[C@@H]3Oc4c(O)ccc5c4[C@@]31CCN(C)[C@@H]2C5 [Compound 17, dihydrochloride] | 9.60
* O=C(O)CN[C@@H]1CC[C@@]2(OCCCc3ccccc3)[C@H]3Cc4ccc(O)c5c4[C@@]2(CCN3CC2CC2)[C@H]1O5 [Compound 38, dihydrochloride] | 9.62
* CO[C@@]12CC[C@H](N[C@@H](Cc3ccccc3)C(=O)O)[C@@H]3Oc4c(O)ccc5c4[C@@]31CCN(C)C2C5 | 9.02
* CCOC(=O)CN[C@H]1CC[C@@]2(OC)[C@H]3Cc4ccc(O)c5c4[C@@]2(CCN3C)[C@H]1O5 [Compound 22, dihydrochloride] | 9.68

Here's the next entry for you.
Q: Given CCOC(=O)CN[C@@H]1CC[C@@]2(OC)[C@H]3Cc4ccc(O)c5c4[C@@]2(CCN3C)[C@H]1O5 [Compound 23, dihydrochloride] , respond with its pKi.
Ans: 9.10
